These entries and their values trace back to the supplement of paper PMC10126150.

- Test system: ATP;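 further: ATP exposure 15 min at 22 °C before imaging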
- experiment.notes: switch fluorescence ratio, 500 uM ATP over buffer (Cy3 cluster intensity, sum of 5 cycles each) (fold (ratio)); higher = stronger signal-on switching upon ATP binding; sequences stand for … in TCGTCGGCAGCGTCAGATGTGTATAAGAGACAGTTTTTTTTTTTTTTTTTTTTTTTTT…TC
- condition.summary: aptamer strand: ATP DNA aptamer (quencher-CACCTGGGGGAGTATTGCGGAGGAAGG + anchor), 100 nM annealed; ATP concentration: 500 uM
Assign Condition met to entries whose switch fluorescence ratio meets or exceeds 1; assign Condition not met to the rest.

Would you please look over these solved cases?
>>> print(df.to_string())
   sequence_code  experimental_system     discrete_label
0     GCCGCTGTCG                  ATP  Condition not met
1     TAGGCGTACG                  ATP      Condition met
2     GGAATAGGCT                  ATP  Condition not met

Hi, just wondering whether `CGATATCAAT` shows switch fluorescence ratio of 1 or higher. Condition met

Hi, just wondering whether `TGAGTAAAGC` shows switch fluorescence ratio of 1 or higher. Condition met

Hi, just wondering whether `TAGTAGAGT` shows switch fluorescence ratio of 1 or higher. Condition not met
